Target protein (sequence): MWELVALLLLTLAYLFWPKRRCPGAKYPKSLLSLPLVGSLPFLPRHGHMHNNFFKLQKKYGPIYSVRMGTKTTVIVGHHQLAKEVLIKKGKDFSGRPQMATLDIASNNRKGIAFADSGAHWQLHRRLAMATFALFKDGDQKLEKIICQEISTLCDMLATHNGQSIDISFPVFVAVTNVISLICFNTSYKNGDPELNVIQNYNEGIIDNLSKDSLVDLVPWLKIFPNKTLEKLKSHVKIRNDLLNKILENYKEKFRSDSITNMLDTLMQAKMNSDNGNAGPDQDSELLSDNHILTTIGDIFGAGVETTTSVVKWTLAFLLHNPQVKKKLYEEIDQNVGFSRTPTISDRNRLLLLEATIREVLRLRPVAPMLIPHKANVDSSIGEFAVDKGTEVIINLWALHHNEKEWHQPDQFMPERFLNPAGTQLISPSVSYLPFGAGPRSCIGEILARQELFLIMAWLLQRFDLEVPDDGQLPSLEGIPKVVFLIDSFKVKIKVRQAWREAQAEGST
pIC50: −log10 of the molar value.
# key: entry, value: pIC50
recorded_endpoint: pIC50

{"chemical_smiles": "Fc1ccc(-n2ncc3c(-c4cncnc4C(F)(F)F)ccnc32)c(F)c1", "recorded_endpoint": "pIC50", "quantitative_readout": 6.80}
{"chemical_smiles": "Nc1ncncc1-c1ccnc2c1cnn2-c1ccccn1", "recorded_endpoint": "pIC50", "quantitative_readout": 6.28}
{"chemical_smiles": "Nc1ncncc1-c1ccnc2c1cnn2-c1ccc(F)cc1", "recorded_endpoint": "pIC50", "quantitative_readout": 7.64}
{"chemical_smiles": "Cc1csc(-n2ncc3c(-c4cnccc4C)ccnc32)n1", "recorded_endpoint": "pIC50", "quantitative_readout": 6.21}
{"chemical_smiles": "Cc1ccncc1-c1ccnc2c1cnn2-c1ccc(C(F)(F)F)cn1", "recorded_endpoint": "pIC50", "quantitative_readout": 7.00}
{"chemical_smiles": "Cc1ccncc1-c1ccnc2c1cnn2CC(F)(F)F", "recorded_endpoint": "pIC50", "quantitative_readout": 7.05}
{"chemical_smiles": "Cc1ccncc1-c1ccnc2c1cnn2-c1cccc(S(N)(=O)=O)c1", "recorded_endpoint": "pIC50", "quantitative_readout": 7.74}
